Entries and their melting point values follow.
readout_name: melting point

• COc1cccc(-c2cc3ccc(N4CCN(C)CC4)cc3c(=O)o2)c1 [Cpd 19] = 140 to 142 °C
• C[C@H]1CN(c2ccc3cc(-c4cccc(OC(F)F)c4)oc(=O)c3c2)CCN1 [Cpd 53] = 132 to 134 °C
• Cc1cn2cc(-c3cc4ccc(C5CCN(C(C)C)CC5)cc4c(=O)o3)nc2c(C)n1 [Cpd 117] = 227 to 229 °C
• CN1CCCN(c2ccc3cc(-c4ccc5c(c4)OC(F)(F)O5)oc(=O)c3c2)CC1 [Cpd 7] = 175 to 177 °C
• CCN1[C@H](C)CN(c2ccc3cc(-c4cn5cc(C)ncc5n4)oc(=O)c3c2)C[C@@H]1C [Cpd 129] = 233 to 238 °C
• Cc1cn2cc(-c3cc4ccc(N5CCN(CCO)[C@H](C)C5)cc4c(=O)o3)nc2c(C)n1 [Cpd 142] = 256 to 261 °C
• Cc1cn2cc(-c3cc4ccc(N5C[C@@H](C)N[C@@H](C)C5)cc4c(=O)o3)nc2cn1 [Cpd 58] = 279 to 281 °C
• COc1ccccc1-c1cc2ccc(N3CCN[C@@H](C)C3)cc2c(=O)o1 [Cpd 32] = 143 to 146 °C
